TEST_PROTOCOL: Plasma pharmacokinetics in mice, routes of administration
Assay type: in vivo
EXPERIMENTAL_PARAMETERS: mouse, plasma, iv, 1 mg/kg, I.V.
Counter-ions that a name gives are not always drawn.
MEASURE: clearance (mL/min/kg)
Answers are plain numbers, in mL/min/kg.

Notebook: CCC1(O)C(=O)OCc2c1cc1n(c2=O)Cc2c-1nc1cc3c(cc1c2CN1CCN(C)CC1)OCCO3 (stereo in doubt) [GI147211, dihydrochloride] , clearance read as 122

* * *

TEST_PROTOCOL: Plasma pharmacokinetics in Sprague-Dawley rats after IV dose
EXPERIMENTAL_PARAMETERS: rat, in vivo, 5 mg/kg
Structures can show the parent of a compound that is named as a salt.
MEASURE: Cmax (ng/mL)
Answers are plain numbers, in ng/mL.

Memo: CCC1(O)C(=O)OCc2c1cc1n(c2=O)Cc2c-1nc1cc3c(cc1c2CN1CCN(C)CC1)OCCO3 (stereo in doubt) [GI147211, dihydrochloride] , reported Cmax: 690

* * *

TEST_PROTOCOL: Plasma pharmacokinetics in mice, routes of administration
Type: in vivo
EXPERIMENTAL_PARAMETERS: mouse, plasma, subcutaneous, 1 mg/kg, Sub. Q
Counter-ions that a name gives are not always drawn.
MEASURE: Tmax

Data point: CCC1(O)C(=O)OCc2c1cc1n(c2=O)Cc2c-1nc1cc3c(cc1c2CN1CCN(C)CC1)OCCO3 (stereo in doubt) [GI147211, dihydrochloride] ; Tmax = 15 min

* * *

TEST_PROTOCOL: Plasma pharmacokinetics in mice, routes of administration
Format: in vivo
EXPERIMENTAL_PARAMETERS: mouse, plasma, subcutaneous, 1 mg/kg, Sub. Q, read-out: Cmax
Structures can show the parent of a compound that is named as a salt.
MEASURE: Cmax (ng/mL)
One number for each entry, in ng/mL.

Lab book: Cmax of CCC1(O)C(=O)OCc2c1cc1n(c2=O)Cc2c-1nc1cc3c(cc1c2CN1CCN(C)CC1)OCCO3 (stereo in doubt) [GI147211, dihydrochloride] noted as 42

* * *

TEST_PROTOCOL: Plasma pharmacokinetics in Sprague-Dawley rats after IV dose
EXPERIMENTAL_PARAMETERS: rat, in vivo, 5 mg/kg
Description: The pharmacokinetics were then compared for free drug and membrane entrapped GI147211 liposomes dosed at 5 mg/kg in Sprague Dawley rats. Rats were dosed at 1 mg/kg to compare free GI147211 to passive and actively loaded liposomes. Pharmacokinetic studies were carried out on various liposomal formulations of GI147211 in rats and mice by IV bolus administration. […] In each study the average plasma concentration at each time point was calculated and utilized in the pharmacokinetic analysis. […]
Where a name gives a salt, the structure may show the parent alone.
MEASURE: clearance (mL/min/kg)
Give bare numbers, in mL/min/kg.

CCC1(O)C(=O)OCc2c1cc1n(c2=O)Cc2c-1nc1cc3c(cc1c2CN1CCN(C)CC1)OCCO3 (stereo in doubt) [GI147211, dihydrochloride] yielded clearance of 132

* * *

TEST_PROTOCOL: Plasma pharmacokinetics in Sprague-Dawley rats after IV dose
EXPERIMENTAL_PARAMETERS: rat, in vivo, 1 mg/kg
Counter-ions that a name gives are not always drawn.
MEASURE: Vd (L/kg)
One number for each entry, in L/kg.

Given item CCC1(O)C(=O)OCc2c1cc1n(c2=O)Cc2c-1nc1cc3c(cc1c2CN1CCN(C)CC1)OCCO3 (stereo in doubt) [GI147211, dihydrochloride] , the value recorded as its Vd is 9.23
